# tested on: CCR5 (Homo sapiens, UniProt P51681)
# Sequence (P51681 whole entry): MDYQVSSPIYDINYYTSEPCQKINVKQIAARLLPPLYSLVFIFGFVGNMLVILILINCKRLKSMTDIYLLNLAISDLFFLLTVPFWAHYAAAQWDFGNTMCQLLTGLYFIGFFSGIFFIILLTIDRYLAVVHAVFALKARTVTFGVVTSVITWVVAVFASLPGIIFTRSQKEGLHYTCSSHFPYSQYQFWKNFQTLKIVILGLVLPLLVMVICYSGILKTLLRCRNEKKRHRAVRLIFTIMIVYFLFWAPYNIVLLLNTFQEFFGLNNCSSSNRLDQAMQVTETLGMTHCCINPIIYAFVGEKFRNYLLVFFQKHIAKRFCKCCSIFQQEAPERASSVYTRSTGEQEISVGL
# test summary: Ca^2+ mobilization assay, CCR5
# Assay type: cell-based
# test parameters: Ca^2+ mobilization assay
readout: pIC50
Answers are plain numbers, as −log10 of the molar value.

Entry NC(=O)c1ccccc1Oc1ncnc2sc(-c3ccccc3)cc12 [Hit 1] ; pIC50 = 4.26

---

# tested on: CCR3 (Homo sapiens, UniProt P51677)
# Sequence (P51677 whole entry): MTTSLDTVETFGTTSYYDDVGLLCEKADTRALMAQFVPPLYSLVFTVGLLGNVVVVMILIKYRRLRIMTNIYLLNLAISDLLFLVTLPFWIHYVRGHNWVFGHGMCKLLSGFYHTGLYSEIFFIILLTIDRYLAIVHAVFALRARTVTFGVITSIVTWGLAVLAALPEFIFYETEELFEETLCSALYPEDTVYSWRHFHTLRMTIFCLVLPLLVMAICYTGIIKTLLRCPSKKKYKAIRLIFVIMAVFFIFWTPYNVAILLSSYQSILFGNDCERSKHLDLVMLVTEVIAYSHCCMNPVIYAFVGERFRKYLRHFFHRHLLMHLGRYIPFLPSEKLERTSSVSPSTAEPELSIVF
# test summary: β-arrestin selectivity assay, CCR3
readout: IC50 (µM)
Numbers only, in µM.

Entry NC(=O)c1ccccc1Oc1ncnc2sc(-c3ccccc3)cc12 [Hit 1] ; IC50 = 4.4

---

# tested on: CCR5 (Homo sapiens, UniProt P51681)
# test summary: cAMP assay, CCR5
# Format: cell-based
# test parameters: CCR5 (data not shown)
# Experimental: The Kb values are also retrieved. […] Finally, to make it more clear the second messenger output for Hit1 and confirm the nature of β-arrestin bias GTPγS and ERK assays were also performed. […] Considering that the ERK is directly related to β-arrestin path and binds directly to the arrestin it was concluded that this compound is β-arrestin biased (Table 1 and FIGS. 3A and 3B). […]
readout: IC50 (µM)
Give bare numbers, in µM.

Entry `NC(=O)c1ccccc1Oc1ncnc2sc(-c3ccccc3)cc12` ; IC50 = 50

---

# tested on: CCR7 (Homo sapiens)
# Construct: expressed in transfected cells
# Sequence (P32248 25-378, species assumed): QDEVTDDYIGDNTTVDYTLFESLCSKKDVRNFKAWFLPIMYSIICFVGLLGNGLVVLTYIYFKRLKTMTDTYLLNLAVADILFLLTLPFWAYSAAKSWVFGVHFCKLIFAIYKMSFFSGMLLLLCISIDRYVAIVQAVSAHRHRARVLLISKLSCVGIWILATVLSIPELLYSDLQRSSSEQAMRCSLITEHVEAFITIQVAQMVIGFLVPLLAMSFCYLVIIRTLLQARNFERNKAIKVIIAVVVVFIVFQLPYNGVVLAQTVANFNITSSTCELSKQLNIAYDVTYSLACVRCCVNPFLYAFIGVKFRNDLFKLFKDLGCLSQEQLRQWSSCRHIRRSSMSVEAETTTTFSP
# test summary: Ca^2+ mobilization assay, CCR7
# Format: cell-based
# test parameters: similar Ca^2+ mobilization assay in an independent lab (data not shown)
pIC50: −log10 of the molar value.
readout: pIC50

Field pIC50 (CCR7 (Homo sapiens)), entry `NC(=O)c1ccccc1Oc1ncnc2sc(-c3ccccc3)cc12` : 4.52 to 4.60

---

# System: IL17 release
# test summary: Inhibition of IL17 release (inflammation model)
# test parameters: Homo sapiens, read-out: EC50, IL17 release
readout: EC50 (µM)
Answers are plain numbers, in µM.

Entry `NC(=O)c1ccccc1Oc1ncnc2sc(-c3ccccc3)cc12` ; EC50 = 3.78

---

Kindly state pIC50 for each of the entries shown.
# tested on: CXCR4 (Homo sapiens, UniProt P61073)
# Sequence (P61073 whole entry): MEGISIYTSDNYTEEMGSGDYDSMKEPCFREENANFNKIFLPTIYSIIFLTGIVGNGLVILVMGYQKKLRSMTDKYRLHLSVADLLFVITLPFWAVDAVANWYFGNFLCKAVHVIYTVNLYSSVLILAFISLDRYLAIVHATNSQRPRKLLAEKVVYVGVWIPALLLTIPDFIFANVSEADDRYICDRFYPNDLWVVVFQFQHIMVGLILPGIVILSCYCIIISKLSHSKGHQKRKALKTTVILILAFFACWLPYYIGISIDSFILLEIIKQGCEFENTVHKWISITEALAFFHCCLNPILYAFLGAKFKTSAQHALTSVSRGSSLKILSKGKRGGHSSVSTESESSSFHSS
# test summary: Ca^2+ mobilization assay, CXCR4
pIC50: −log10 of the molar value.

[
  {
    "compound": "Cc1nc(Oc2c(Cl)cccc2C(N)=O)c2c(C)c(-c3ccccc3Cl)sc2n1 [MIC5023]",
    "pIC50": "~4.52"
  }
]

Entry Cc1nc(Oc2c(Cl)cccc2C(N)=O)c2cc(-c3ccccc3Cl)sc2n1 [MIC5024] ; pIC50 = < 4.30

---

# tested on: CCR2 (Homo sapiens, UniProt P41597)
# Sequence (P41597 whole entry): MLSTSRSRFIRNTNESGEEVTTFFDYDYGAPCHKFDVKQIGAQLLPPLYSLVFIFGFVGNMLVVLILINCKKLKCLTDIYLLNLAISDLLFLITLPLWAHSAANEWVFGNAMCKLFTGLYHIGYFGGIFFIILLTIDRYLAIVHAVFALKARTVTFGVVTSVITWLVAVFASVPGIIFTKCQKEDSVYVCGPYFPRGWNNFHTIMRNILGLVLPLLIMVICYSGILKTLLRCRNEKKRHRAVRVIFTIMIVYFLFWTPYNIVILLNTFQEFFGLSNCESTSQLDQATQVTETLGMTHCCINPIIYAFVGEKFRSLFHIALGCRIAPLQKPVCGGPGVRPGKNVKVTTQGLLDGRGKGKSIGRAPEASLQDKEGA
# test summary: β-arrestin selectivity assay, CCR2
Kindly state IC50 for each of the entries shown.
Answers are plain numbers, in µM.

[
  {
    "mol smiles": "Cc1nc(Oc2c(Cl)cccc2C(N)=O)c2c(C)c(-c3ccccc3Cl)sc2n1",
    "tested on": "CCR2 (Homo sapiens, UniProt P41597)",
    "IC50 [µM]": 31.5
  }
]

Pending compound:
Field IC50 (CCR2 (Homo sapiens, UniProt P41597)), entry `NC(=O)c1ccccc1Oc1ncnc2sc(-c3ccccc3)cc12` : 2.6
